Please provide measured growth for the entries that follow.
Tested on: SN12C renal
Assay: NCI-60 one-dose screen, 48 h (100 = growth as untreated, 0 = no growth, -100 = all killed)
Settings: 10 µM unless noted
Experimental: Growth inhibition of the SN12C human tumor cell line is measured as a screen for anti-cancer activity. Cells are grown in 96 well plates and exposed to the test compound for 48 hours. Compounds are tested at a single concentration, which is 10^-5 M for most compounds. The reported endpoint is percent growth (GI% or GIPRCNT), where numbers from 0 - 100% represent growth inhibition, and numbers from -100% - 0 represent cell death. For example, a value of 40 represents 60% growth inhibition. […]
The panel holds about 83,000 compounds, 20% with a hit somewhere; the sample as a whole holds those more often.
Expressed in %, but write only the number.

State, for SN12C renal, measured growth of the compound listed here: CCc1c(Nc2ccccc2C)nc(N)[nH]c1=O
100

State, for SN12C renal, measured growth of the compound listed here: COc1cc(-c2nc3ccccc3[nH]2)ccc1OCC(=O)N=Nc1c(O)[nH]c2ccc(Cl)cc12
-73.4

State, for SN12C renal, measured growth of the compound listed here: COc1cc2c(cc1-c1c(C)noc1C)ncc1nc(C3CCC(F)(F)CC3)n([C@H](C)COC(F)F)c12
51

State, for SN12C renal, measured growth of the compound listed here: COc1ccc(C2Nc3c(c(C(C)(C)C)nn3-c3ccccc3)C(=O)CS2)cc1 (stereo not given)
99.8

State, for SN12C renal, measured growth of the compound listed here: COc1cc2c(cc1-c1c(C)noc1C)ncc1nc(C3CCOCC3)n([C@@H](C)COC(F)F)c12
66.5

---

Please provide measured growth for the entries that follow.
Tested on: SW-620 colon
Test: NCI-60 one-dose screen, 48 h (100 = growth as untreated, 0 = no growth, -100 = all killed)
Details: 10 µM unless noted
This is part of a sample that, as a whole, favours compounds with a hit. Of some 83,000 tested, about 20% had one in any assay.
Expressed in %, but write only the number.

Please look at this compound and report its growth: CCCSc1ccc2nc(NC(=O)OC)[nH]c2c1
24

Please look at this compound and report its growth: O=S(=O)(Nc1ccc(OC(F)F)cc1)c1ccc(-c2cnc(C3CC3)o2)cc1
35.2

Please look at this compound and report its growth: O=C1/C(=C/N2N=C(c3ccc4ccccc4c3)CC2c2ccccc2O)SC(=S)N1c1cccnc1 (stereo not given)
24

Please look at this compound and report its growth: Cc1cc2c3ccccc3ccc2[n+]2ccccc12
33

Please look at this compound and report its growth: COc1ccc(C2CC(c3ccc(Cl)cc3)=NN2/C=C2\SC(=S)N(NC(=O)Cc3ccccc3Nc3c(Cl)cccc3Cl)C2=O)cc1 (stereo not given)
90

---

System: HOP-92 NSCLC
Experiment: NCI-60 one-dose screen, 48 h (100 = growth as untreated, 0 = no growth, -100 = all killed)
Conditions: 10 µM unless noted
This is part of a sample that, as a whole, favours compounds with a hit. Of some 83,000 tested, about 20% had one in any assay.
reported-endpoint: growth (%)
Expressed in %, but write only the number.

Please look at this molecule and report its growth: COc1cc(-c2nn(-c3ccc(C(=O)O)cc3)cc2C(=O)O)ccc1O
58.8

Please look at this molecule and report its growth: COc1cc(C2CC(=O)c3ccccc3N2)cc(OC)c1OC (stereo not given)
92.2

Please look at this molecule and report its growth: CCOC(=O)c1csc(NC(=O)COc2cccc(/C=C3\CSc4ccccc4C3=O)c2)n1
-79.1

Please look at this molecule and report its growth: COc1cc(CNc2oc(-c3ccccc3)c(-c3ccccc3)c2C#N)cc(CN2CCN(C)CC2)c1O
43.9

Please look at this molecule and report its growth: COc1cc2c(cc1O)CC[C@@H]1[C@@H]2CC[C@]2(C)[C@@H](NCCN(C)C)CC[C@@H]12
-81.7

Please look at this molecule and report its growth: O=C(CN1C(=O)/C(=C/c2ccc(Cl)cc2)SC1=S)NCCCN1CCOCC1
85.7

Please look at this molecule and report its growth: Cc1nn(-c2cc(=O)[nH]c3ccccc23)c(N)c1C#N
106

Please look at this molecule and report its growth: O=C1c2cccc3cccc(c23)C(=O)N1CCCCCN1CCN(CCCCCOc2ccc(-c3nc4ccc(N5CCOCC5)cc4[nH]3)cc2)CC1
49.2

Please look at this molecule and report its growth: O=C(O)c1c(=O)cccc2ssc12
-0.323

Please look at this molecule and report its growth: C=CC(=O)Nc1cccc(-c2nc(SC)nc(Nc3ccccc3OC)c2C#N)c1
31

Please look at this molecule and report its growth: FC(F)(F)c1nc2c(NCc3ccc(-c4ccccc4)cc3)cccc2[nH]1
62

Please look at this molecule and report its growth: COc1cccc(NC(=O)c2sc3nc(C)c(C(C)=O)cc3c2N)c1
52

Please look at this molecule and report its growth: CCCSc1ccc2nc(NC(=O)OC)[nH]c2c1
33.6

Please look at this molecule and report its growth: COc1ccc(C2Nc3c(c(C(C)(C)C)nn3-c3ccccc3)C(=O)CS2)cc1 (stereo not given)
91.7

Please look at this molecule and report its growth: CC(C)(C)c1cc(/C=N\NC(=O)/C=C/C=C/c2ccc3c(c2)OCO3)c(O)c(C(C)(C)C)c1
88.5

Please look at this molecule and report its growth: c1ccc(-c2c(-c3ccccc3)[n+](Cc3ccc4ccccc4c3)c(-c3ccc(-c4nc5ccccc5s4)cc3)n2Cc2ccc3ccccc3c2)cc1
-85.4

Please look at this molecule and report its growth: COc1ccc(-c2nc3ccc(-c4nc5ccc(N6CCN(c7ccccc7)CC6)cc5[nH]4)cc3[nH]2)cc1OC
13.6

Please look at this molecule and report its growth: Clc1ccc2c(NCCCCNc3nc(N4CCOCC4)nc4ccccc34)ccnc2c1
71.8

Please look at this molecule and report its growth: N#Cc1nnn(-c2ccc(S(N)(=O)=O)cc2)c1NC(=O)CCl
96.1

Please look at this molecule and report its growth: COc1cccc(/C=C2\Oc3cc(OCCN4CCCC4)ccc3C2=O)c1
69.6

---

Please provide measured growth for the entries that follow.
Test system: MALME-3M melanoma
Assay: NCI-60 one-dose screen, 48 h (100 = growth as untreated, 0 = no growth, -100 = all killed)
Conditions: 10 µM unless noted
The panel holds about 83,000 compounds, 20% with a hit somewhere; the sample as a whole holds those more often. Calls of active or inactive are those of the source. How the source made its calls: active means growth percent below 10; inactive means the rest.

Please look at this compound and report its growth: CCCCC/C(C=C(C#N)C#N)=C/c1ccccc1
95.4% (inactive)

Please look at this compound and report its growth: O=c1oc2c(C(F)(F)F)cccc2cc1-c1csc(Nc2ccc(OCCF)cc2)n1
66.2% (inactive)

Please look at this compound and report its growth: O=c1nc2oc3ccc4ccccc4c3cc-2s1
45.2% (inactive)

Please look at this compound and report its growth: COc1cc2c(cc1-c1c(C)noc1C)ncc1nc(-c3ccccn3)n([C@H](C)COC(F)F)c12
70.1% (inactive)

Please look at this compound and report its growth: O=C(/C=C/c1cc(CN2CCOCC2)c(O)c2ncccc12)c1cc(CN2CCOCC2)c(O)c2ncccc12
38.9% (inactive)

Please look at this compound and report its growth: CCOC(=O)c1c(C)oc2ncnc(N3CCN(C(=S)Nc4ccccc4)CC3)c12
99.9% (inactive)

Please look at this compound and report its growth: COc1ccc(C(=O)COc2ccc(/C=C3\Oc4ccc(OC)cc4C3=O)cc2)cc1
102% (inactive)

Please look at this compound and report its growth: C#CCOc1ccc2ncnc(Nc3cccc(CNC(=O)C=C)c3)c2c1
109% [8.25 µM] (inactive)

Please look at this compound and report its growth: O=C(CCN1C(=O)/C(=C/c2ccc(Cl)cc2)SC1=S)NCCCN1CCOCC1
100% (inactive)

Please look at this compound and report its growth: C=CC(=O)Nc1cccc(-c2nc(SC)nc(Nc3cccc(OC)c3)c2C#N)c1
77.6% (inactive)

---

Test system: SF-268 CNS
Assay: NCI-60 one-dose screen, 48 h
Conditions: 10 µM unless noted
This is part of a sample that, as a whole, favours compounds with a hit. Of some 83,000 tested, about 20% had one in any assay. Activity calls are given as the source filed them. The calls were made as follows: active = growth percent below 10; inactive = the rest.
// classify into class 1 for active, class 0 for inactive

How did this test come out for Cn1nc(N)c2cc([C@@H]3Nc4ccc5[nH]ncc5c4[C@H]4C5CCC(C5)[C@@H]34)ccc21 (stereo partly drawn) ?
class 0

How did this test come out for O=C1c2ccccc2C(=O)c2c1ccc1[nH]c(-c3cccs3)nc21 ?
class 0

How did this test come out for CC[C@@H](C(=O)[C@@H](C)[C@@H](O)[C@H](C)[C@@H]1O[C@@H]([C@@H](CC)C(=O)O)CC[C@@H]1C)[C@H]1OC2(C=C[C@@H](O)[C@]3(CC[C@@](C)([C@H]4CC[C@](O)(CC)[C@H](C)O4)O3)O2)[C@H](C)C[C@@H]1C (stereo partly drawn) ?
class 0

How did this test come out for COc1ccc(-n2nc(C)c3c(Nc4ccc(NC(=O)Nc5ccc(Cl)c(C(F)(F)F)c5)cc4)ncnc32)cc1 ?
class 0

How did this test come out for CC(C)(C)N1CCC1CN (stereo not drawn) ?
class 0

How did this test come out for CN1CCN(CCCOc2cccc3nc(Nc4cc(Cl)cc(Cl)c4)ccc23)CC1 ?
class 0

How did this test come out for CC(=O)OC[C@H]1O[C@H](OC(C)=O)[C@H](NC(=O)/C=C/CCl)[C@@H](OC(C)=O)[C@@H]1OC(C)=O ?
class 0

How did this test come out for COc1ccc(/C=C/C(=O)c2cc(O)ccc2O)cc1 ?
class 0

How did this test come out for COc1ccc(-c2cc(-c3ccc(Nc4ccnc5cc(Cl)ccc45)cc3)nc(N3CCOCC3)n2)cc1 ?
class 0

How did this test come out for NC1=C(Cl)C(=O)c2ccc(S(N)(=O)=O)cc2C1=O ?
class 1

How did this test come out for Cc1ccc2c(C(C[N+](=O)[O-])c3ccccc3)c(-c3ccccc3)[nH]c2c1 (stereo not drawn) ?
class 0

How did this test come out for COc1cccc(/C=C2\SC(=Nc3ccc(NC(C)=O)cc3)NC2=O)c1OC ?
class 0

How did this test come out for O=C(/C=C/c1ccccc1)c1ccc(O)c(CN2CCN(c3cc4c(cc3F)c(=O)c(C(=O)O)cn4C3CC3)CC2)c1 ?
class 0

How did this test come out for O=C(N(c1ccccc1)c1ccccc1)n1ccc2nc(Cl)nc(Cl)c21 ?
class 0

How did this test come out for COc1cc(CNc2oc(-c3ccccc3)c(-c3ccccc3)c2C#N)cc(CN2CCN(C)CC2)c1O ?
class 0

How did this test come out for NCCNc1nc(Nc2ccc(-c3nc4ccccc4[nH]3)cc2)c2cn[nH]c2n1 ?
class 0

How did this test come out for COc1cc2c(cc1-c1c(C)noc1C)ncc1nc(C3CCOCC3)n([C@@H](C)COC(F)F)c12 ?
class 0

How did this test come out for Brc1ccc(-c2csc(Nc3ccccn3)n2)cc1 ?
class 0
